Taken from patent US20260226048A1.

System: MOLM14 D835Y cells
procedureDetails: MOLM14 D835Y cell viability assay (Cell Titer Glo)
Format: cell-based
conditionLabel: Homo sapiens, MOLM-14, 48 h, cell viability, Cell Titer Glo, 48 hours; read-out: MOLM14 D835Y IC50
Please respond with reported IC50 for every item in the list.
Express the result in nM but write the number alone.

Please report the recorded IC50 for COc1cc2ncc(-c3nc(N[C@H]4CNC[C@@H]4F)ncc3F)n2nc1N1CCCS1(=O)=O [Compound 111a] .
13

# repeat for FC(F)COc1cc2ncc(-c3ccnc(N[C@H]4CNC[C@@H]4F)n3)n2nc1C1CC1 [Compound 5a]
29

Can you check COc1cc2ncc(-c3nc(N[C@H]4CNC[C@@H]4F)ncc3F)n2nc1C1CC1 [Compound 2a] next?
4

Note, next up: COc1cc2ncc(-c3ccnc(N[C@H]4CNCC[C@@H]4F)n3)n2nc1C12CC(C1)C2 [Compound 91a]
28

Cool, now COc1cnc(N[C@@H]2CCCNC2)nc1-c1cnc2cc(OC)c(C3CC3)nn12 [Compound 105a]
711

For COc1cc2ncc(-c3ccnc(N[C@H]4CNC[C@@H]4F)n3)n2nc1C12CC(C1)C2 [Compound 89a] then?
18

Now give it for COc1cc2ncc(-c3nc(N[C@H]4CNCC[C@@H]4F)ncc3F)n2nc1[C@H]1C[C@H](O)C1 [Compound 125a] too.
2

Now this one: COc1cnc(N[C@H]2CNC[C@@H]2F)nc1-c1cnc2cc(OC)c(C3CC3)nn12 [Compound 104a]
711

* * *

So I've got a bunch of compounds here, and I need their pIC50 values.
assaySystem: IRAK4 (Homo sapiens)
Sequence (Q9NWZ3 whole entry): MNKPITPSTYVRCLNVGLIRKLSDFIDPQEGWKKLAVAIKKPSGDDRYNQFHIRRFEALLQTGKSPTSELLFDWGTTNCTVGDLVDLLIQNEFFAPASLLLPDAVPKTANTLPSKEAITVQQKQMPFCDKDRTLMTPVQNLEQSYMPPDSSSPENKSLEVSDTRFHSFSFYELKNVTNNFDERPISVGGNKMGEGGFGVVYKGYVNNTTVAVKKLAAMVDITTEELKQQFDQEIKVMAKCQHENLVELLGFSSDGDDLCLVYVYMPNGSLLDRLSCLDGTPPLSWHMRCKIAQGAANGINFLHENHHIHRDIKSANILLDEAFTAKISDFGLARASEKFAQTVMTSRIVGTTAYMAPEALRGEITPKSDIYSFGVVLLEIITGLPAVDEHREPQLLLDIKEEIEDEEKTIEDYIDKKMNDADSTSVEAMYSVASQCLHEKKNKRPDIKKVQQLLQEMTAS
procedureDetails: RBC HotSpot Kinase Assay, IRAK4
Type: biochemical
Set-up: purchased Reaction Biology (RBC HotSpot)
conditionLabel: isolated kinase enzyme, 33P-ATP, P81 filter-binding
By convention, pIC50 is the negative base-10 log of a molar concentration.

Could you tell me which pIC50 is on file for COc1cc2ncc(-c3nc(N[C@H]4CNCC[C@@H]4F)ncc3F)n2nc1N1CCCS1(=O)=O [Compound 112a] ?
8.52

Moving on to the next compound: COc1cc2ncc(-c3ccnc(N[C@@H]4CCCNC4)n3)n2nc1C1CCC1 [Compound 78a]
8.15

Thanks! And CC(O)(c1cn2c(-c3nc(N[C@@H]4CCCNC4)ncc3F)cnc2cn1)C(F)(F)F (single isomer, unassigned) [Compound 132a] ?
8.70

Request: FC(F)COc1cc2ncc(-c3cncc(N[C@@H]4CCCNC4)n3)n2nc1C1CC1 [Compound 9a]
7.96

Same for COc1cc2ncc(-c3ccnc(N[C@H]4CNCC[C@@H]4F)n3)n2nc1C1CCCC1 [Compound 85a]
9.00

Next compound: CC(C)(O)c1cn2c(-c3nc(N[C@@H]4CCCNC4)ncc3F)cnc2cn1 [Compound 99a]
7.96

* * *

assaySystem: UniProtKB P36888
procedureDetails: RBC HotSpot Kinase Assay, FLT3
Assay type: biochemical
Parameters: purchased Reaction Biology (RBC HotSpot)
conditionLabel: isolated kinase enzyme, 33P-ATP, P81 filter-binding
attributeMeasured: IC50 (nM)
Please give a number only; it is taken to be in nM.

Return reported IC50; argument: CC(O)(c1ccc2ncc(-c3cncc(N[C@@H]4CCCNC4)n3)n2c1)C(F)(F)F (single isomer, unassigned) [Compound 29a]
1

Another: COc1cc2ncc(-c3ccnc(N[C@H]4CNCC[C@@H]4F)n3)n2nc1C1CCO1 (stereo partly shown) [Compound 109a]
1

* * *

assaySystem: FLT3 (Homo sapiens, UniProt P36888)
procedureDetails: RBC HotSpot Kinase Assay, FLT3
Type: biochemical
Set-up: purchased Reaction Biology (RBC HotSpot)
conditionLabel: isolated kinase enzyme, 33P-ATP, P81 filter-binding
pIC50: −log10 of the molar value.
attributeMeasured: pIC50

Consider the molecule COc1cc2ncc(-c3ccnc(N[C@H]4CNCC[C@@H]4F)n3)n2nc1C1CC2(CCC2)C1 [Compound 74a] and give its measured pIC50.
> 9.30

What about this molecule? COc1cc2ncc(-c3nc(N[C@@H]4CCCNC4)ncc3F)n2nc1C1CCCC1 [Compound 62a]
> 9.30

Moving on to the next molecule: COc1cc2ncc(-c3ccnc(N[C@H]4CNCC[C@@H]4F)n3)n2nc1C1CCCC1 [Compound 85a]
> 9.30

Now give it for CC(C)(O)c1cn2c(-c3nc(N[C@@H]4CCCNC4)ncc3F)cnc2cn1 [Compound 99a] too.
8.52

Can you check COc1cc2ncc(-c3ccnc(N[C@H]4CNCC[C@@H]4F)n3)n2nc1C1CCCCC1 [Compound 88a] next?
> 9.30

// query: COc1cc2ncc(-c3ccnc(N[C@@H]4CCCNC4)n3)n2nc1C1COC1 [Compound 96a]
9.30

Do the same for COc1cc2ncc(-c3nc(N[C@H]4CNC[C@@H]4F)ncc3F)n2nc1N1CCS(=O)(=O)CC1 [Compound 123a] please
> 9.30

Note, next up: COc1cc2ncc(-c3ccnc(N[C@@H]4CCCNC4)n3)n2nc1C1CCCC1 [Compound 84a]
> 9.30

* * *

Test system: MOLM14 D835Y cells
procedureDetails: MOLM14 D835Y cell viability assay (Cell Titer Glo)
Type: cell-based
conditionLabel: Homo sapiens, MOLM-14, 48 h, cell viability, Cell Titer Glo, 48 hours; read-out: MOLM14 D835Y IC50
attributeMeasured: pIC50
Remember, pIC50 is on a log scale: it is -log10 of the molar concentration.

Which pIC50 is reported for this compound? COc1cc2ncc(-c3ccnc(N[C@H]4CNCC[C@@H]4F)n3)n2nc1N1CC(F)(F)C1 [Compound 18a]
7.29

Similarly, COc1cc2ncc(-c3nc(N[C@@H]4CCCNC4)ncc3F)n2nc1C1CC(F)(F)C1 [Compound 51a] ?
8.05

Another compound to check: COc1cc2ncc(-c3nc(N[C@H]4CNC[C@@H]4F)ncc3F)n2nc1C12CC(C1)C2 [Compound 67a]
8.05

Let us now turn to COc1cc2ncc(-c3nc(N[C@H]4CNC[C@@H]4F)ncc3F)n2nc1C1CCCCC1 [Compound 64a]
8.22

Follow-up item: COc1cc2ncc(-c3ccnc(N[C@H]4CNC[C@@H]4F)n3)n2nc1C1CCC1 [Compound 77a]
7.80

Now try COc1cc2ncc(-c3ccnc(N[C@@H]4CCCNC4)n3)n2nc1C1CC(F)(F)C1 [Compound 21a] .
6.99

Also COc1cc2ncc(-c3nc(N[C@@H]4CCCNC4)ncc3F)n2nc1C1COC1 [Compound 94a] ?
8.22

Query COc1cc2ncc(-c3ccnc(N[C@@H]4CCCNC4)n3)n2nc1C1COC1 [Compound 96a] next
7.80

* * *

assaySystem: FLT3 ITD, F691L (Homo sapiens, UniProt P36888, F691L, form not given)
Construct: fused on or other part: DNA tag for qPCR detection (kinase-tagged T7 phage, or made in HEK-293 cells and then tagged with DNA)
Sequence (P36888 1-993 F691L): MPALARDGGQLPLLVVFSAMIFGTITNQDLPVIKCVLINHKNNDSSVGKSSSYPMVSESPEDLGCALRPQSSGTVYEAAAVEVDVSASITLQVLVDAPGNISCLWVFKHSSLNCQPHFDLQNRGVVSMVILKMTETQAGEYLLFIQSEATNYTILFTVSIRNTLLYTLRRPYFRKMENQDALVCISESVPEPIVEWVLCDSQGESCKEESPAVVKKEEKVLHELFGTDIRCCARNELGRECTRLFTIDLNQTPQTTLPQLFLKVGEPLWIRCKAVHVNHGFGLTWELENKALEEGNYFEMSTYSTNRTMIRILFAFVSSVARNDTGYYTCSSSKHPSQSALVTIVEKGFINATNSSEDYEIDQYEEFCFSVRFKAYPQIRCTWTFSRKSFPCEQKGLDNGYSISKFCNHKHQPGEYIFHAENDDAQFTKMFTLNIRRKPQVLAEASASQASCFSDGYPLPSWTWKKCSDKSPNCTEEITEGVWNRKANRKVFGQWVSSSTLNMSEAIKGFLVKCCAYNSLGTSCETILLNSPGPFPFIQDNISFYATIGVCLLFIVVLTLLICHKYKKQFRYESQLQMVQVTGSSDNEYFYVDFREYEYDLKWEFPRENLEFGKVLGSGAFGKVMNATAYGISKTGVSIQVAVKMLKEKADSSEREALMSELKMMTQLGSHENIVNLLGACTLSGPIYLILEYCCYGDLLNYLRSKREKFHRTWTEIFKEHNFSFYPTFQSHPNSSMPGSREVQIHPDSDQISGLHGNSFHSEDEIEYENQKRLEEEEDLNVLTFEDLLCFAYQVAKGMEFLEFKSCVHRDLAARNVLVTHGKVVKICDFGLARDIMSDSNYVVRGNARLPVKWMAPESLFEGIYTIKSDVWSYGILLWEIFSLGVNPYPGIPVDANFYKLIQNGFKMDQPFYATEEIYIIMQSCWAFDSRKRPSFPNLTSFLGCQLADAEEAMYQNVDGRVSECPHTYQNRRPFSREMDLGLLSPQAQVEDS
procedureDetails: DiscoverX KINOMEscan competition binding assay, FLT3 ITD, F691L
conditionLabel: 11-point 3-fold dilution
attributeMeasured: pKd
The scale used: pKd is minus the common logarithm of the concentration in molar units.

Request body: readout pKd, system FLT3 ITD, F691L (Homo sapiens, UniProt P36888, F691L, form not given), query CC(C)(O)c1cn2c(-c3nc(N[C@H]4CNCC[C@@H]4F)ncc3F)cnc2cn1 [Compound 100a] . Return the value.
8.47

# iterate: COc1cc2ncc(-c3nc(N[C@H]4CNCC[C@@H]4F)ncc3F)n2nc1C(C)(C)O [Compound 45a]
9.72

Query CC(C)(O)c1ccc2ncc(-c3nc(N[C@H]4CNCC[C@@H]4F)ncc3F)n2c1 [Compound 46a] next
9.66
